Entries and their kcat Km^-1 of PR with the redoxin, percent of that with E. coli Trx1 values follow.
biological target: E. coli 3'-phosphoadenosine 5'-phosphosulfate (PAPS) reductase (E. coli) (UniProt P17854)
Sequence (P17854 whole entry): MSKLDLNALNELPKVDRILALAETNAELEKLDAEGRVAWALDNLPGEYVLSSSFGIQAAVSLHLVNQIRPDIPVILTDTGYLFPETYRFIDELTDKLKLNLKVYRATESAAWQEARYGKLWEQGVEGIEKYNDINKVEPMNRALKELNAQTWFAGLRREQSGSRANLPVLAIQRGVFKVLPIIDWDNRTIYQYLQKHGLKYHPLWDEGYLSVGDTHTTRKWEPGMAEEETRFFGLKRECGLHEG
RECORDED_ENDPOINT: kcat Km^-1 of PR with the redoxin, percent of that with E. coli Trx1

BINDER	RESULT
Arabidopsis thaliana TrxH2 (enzyme) MGGALSTVFGSGEDATAAGTESEPSRVLKFSSSARWQLHFNEIKESNKLLVVDFSASWCGPCRMIEPAIHAMADKFNDVDFVKLDVDELPDVAKEFNVTAMPTFVLVKRGKEIERIIGAKKDELEKKVSKLRA	23%
human Trx1 (enzyme) MVKQIESKTAFQEALDAAGDKLVVVDFSATWCGPCKMIKPFFHSLSEKYSNVIFLEVDVDDCQDVASECEVKCMPTFQFFKKGQKVGEFSGANKEKLEATINELV	59%
Arabidopsis thaliana TrxH3 (enzyme) MAAEGEVIACHTVEDWTEKLKAANESKKLIVIDFTATWCPPCRFIAPVFADLAKKHLDVVFFKVDVDELNTVAEEFKVQAMPTFIFMKEGEIKETVVGAAKEEIIANLEKHKTVVAAA	154%
Arabidopsis thaliana TrxH1 (enzyme) MASEEGQVIACHTVETWNEQLQKANESKTLVVVDFTASWCGPCRFIAPFFADLAKKLPNVLFLKVDTDELKSVASDWAIQAMPTFMFLKEGKILDKVVGAKKDELQSTIAKHLA	18%
